Molecular target: cathepsin L (Homo sapiens, UniProt P07711)
Sequence (P07711 114-333, species assumed): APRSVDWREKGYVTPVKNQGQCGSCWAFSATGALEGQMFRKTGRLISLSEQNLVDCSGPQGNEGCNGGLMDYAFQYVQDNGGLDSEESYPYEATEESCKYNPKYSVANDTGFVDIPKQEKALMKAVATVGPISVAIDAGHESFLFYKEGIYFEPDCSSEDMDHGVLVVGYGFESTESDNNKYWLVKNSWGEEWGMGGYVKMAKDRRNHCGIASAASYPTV
Assay: Inhibitory activity assay against cathepsin L (enzyme assay)
Type: biochemical
Conditions: Z-Phe-Arg-AMC 2 μM, enzyme 3 nM, pH 5.5, 30 minutes
Measured parameter: IC50 (nM)
Response body: numeric value in nM, unit text excluded.

Here is how some molecules turned out for IC50.
- Molecule: "N#Cc1nccc(C2(NC(=O)OCc3ccccc3Cl)CCCCC2)n1 [Example 28]"
  Unit of measurement: "nM"
  IC50: 8780
- Molecule: "N#Cc1nccc(C2(NC(=O)Nc3ccc(-c4ccc(C(=O)NCCn5ccnc5)cc4)c(F)c3)CCCCC2)n1 [Example 186]"
  Unit of measurement: "nM"
  IC50: 2020
- Molecule: "N#Cc1nccc(C2(NC(=O)Nc3ccc(F)c(C(F)(F)F)c3)CCCCC2)n1 [Example 96]"
  Unit of measurement: "nM"
  IC50: 6500
- Molecule: "Cc1cccc(NC(=O)NC2(c3ccnc(C#N)n3)CCCC2)c1C [Example 64]"
  Unit of measurement: "nM"
  IC50: 5510
- Molecule: "N#Cc1nccc(C2(NC(=O)NCc3ccccc3)CCCC2)n1 [Example 42]"
  Unit of measurement: "nM"
  IC50: 7540

// map N#Cc1nccc(C2(NC(=O)OCc3ccc(F)cc3)CCCCC2)n1 [Example 27] to recorded IC50 (system: cathepsin L (Homo sapiens, UniProt P07711)) 895

API: value(readout= IC50, system= cathepsin L (Homo sapiens, UniProt P07711), query= CN1CCN(c2ccc(NC(=O)NC3(c4ccnc(C#N)n4)CCCCC3)cc2)CC1 [Example 138] ) 4200

====

Molecular target: cathepsin L (Homo sapiens, UniProt P07711)
Test: Inhibitory activity assay against cathepsin L (enzyme assay)
Type: biochemical
Details: Z-Phe-Arg-AMC 2 μM, enzyme 3 nM, pH 5.5, 30 minutes
Procedure: In order to measure the enzyme activity of cathepsin L, a buffer solution (pH 5.5) consisting of 50 mM MES, 2.5 mM DTT, 2.5 mM EDTA, 0.005% Polysorbate 20, and 10% DMSO was prepared. […] After reacting the mixture of substrate, test material, and enzyme for 30 minutes, the enzyme activity was measured with the EnVision (Perkin Elmer) microplate reader at an absorption wavelength of 340 nm and an emission wavelength of 460 nm. […]
Decide using IC50 alone. Strictly below 6000 nM: Criterion met. Equal to or above 6000 nM: Criterion not met.

Look over these answered cases.
- Test smiles: "Cc1ccc(F)c(NC(=O)NC2(c3ccnc(C#N)n3)CCCCC2)c1"
  Group: "Criterion met"
- Test smiles: "C#Cc1ccc(-c2ccc(NC(=O)NC3(c4ccnc(C#N)n4)CCCCC3)cc2)cc1"
  Group: "Criterion not met"

In plain terms, does N#Cc1nccc(C2(NC(=O)OCc3cccc(Br)c3)CCCC2)n1 come in under 6000 nM for IC50? Criterion not met

Determine if Cc1cccc(COC(=O)NC2(c3ccnc(C#N)n3)CCCCC2)c1 shows IC50 strictly lower than 6000 nM. Criterion met

For this compound, is IC50 lower than 6000 nM? Cc1ccc(CNC(=O)NC2(c3ccnc(C#N)n3)CCCC2)cc1 Criterion not met

Would you kindly verify if IC50 of N#Cc1nccc(C2(NC(=O)Nc3ccc(-c4ccc(S(=O)(=O)C(F)(F)F)cc4)c(C(F)(F)F)c3)CCCCC2)n1 is strictly less than 6000 nM? Criterion not met
